I'd be grateful if you could share measured EC50 for these entries.
tested on: HCV replicon-containing huh-7 cells (replicon 1b); assay: HCV Replicon Assay (luciferase readout); format: cell-based; settings: Hepatitis C virus; HCV replicon 1b in huh-7 cells, 48 h incubation, 1% DMSO, luciferase signal; read-out: EC50 (EC 50 on replicon 1b)

Use these answered entries as a reference point.
| structure_as_smiles | EC50 |
| --- | --- |
| C=C[C@@H]1C[C@]1(NC(=O)[C@@H]1C[C@@H]2CN1C(=O)[C@H](C(C)(C)C)NC(=O)[C@H](NC(=O)c1cnccn1)COC/C=C/c1cccc3c1CN(C3)C(=O)O2)C(=O)NS(=O)(=O)C1CC1 | 50 to 500 nM |
| C=C[C@@H]1C[C@]1(NC(=O)[C@@H]1C[C@@H]2CN1C(=O)[C@H](C(C)(C)C)NC(=O)[C@@H](NC(=O)OCC)COC/C=C/c1cccc3c1CN(C3)C(=O)O2)C(=O)NS(=O)(=O)C1CC1 | 10 to 50 nM |
| CC[C@@H]1C[C@]1(NC(=O)[C@@H]1C[C@@H]2CN1C(=O)[C@H](C1CCCCC1)NC(=O)[C@@H](NC(=O)OC(C)(C)C)COC/C=C/c1cccc3c1CN(C3)C(=O)O2)C(=O)NS(=O)(=O)C1CC1 | < 10 nM |

Please examine the following record next.
// lookup EC50 for `C=C[C@@H]1C[C@]1(NC(=O)[C@@H]1C[C@@H]2CN1C(=O)[C@H](C(C)(C)C)NC(=O)[C@@H](NC(=O)OC(C)(C)C)CCOC/C=C/c1cccc3c1CN(C3)C(=O)O2)C(=O)NS(=O)(=O)C1CC1`
< 10 nM

---

tested on: HCV replicon-containing huh-7 cells (replicon 1b); assay: HCV Replicon Assay (luciferase readout); assay type: cell-based; settings: Hepatitis C virus; HCV replicon 1b in huh-7 cells, 48 h incubation, 1% DMSO, luciferase signal; read-out: EC50 (EC 50 on replicon 1b)
recorded_metric: EC50

| molecule | EC50 |
| --- | --- |
| CC[C@@H]1C[C@]1(NC(=O)[C@@H]1C[C@@H]2CN1C(=O)[C@H](C(C)(C)C)NC(=O)OCC(C)(C)CCCCc1cccc3c1CN(C3)C(=O)O2)C(=O)NS(=O)(=O)C1CC1 [MK7009, reference compound] | < 10 nM |

Kindly review the next molecule as well.
Which EC50 is reported for this molecule? C=C[C@@H]1C[C@]1(NC(=O)[C@@H]1C[C@@H]2CN1C(=O)[C@H](C(C)(C)C)NC(=O)[C@@H](NC(=O)OC(C)(C)C)COC/C=C/c1cccc3c1CN(C3)C(=O)O2)C(=O)NS(=O)(=O)C1CC1 [Compound IIa-1]
< 10 nM
